# System: NCI-H23 lung
# Experiment: NCI tumour cell line growth inhibition, 48 h
Readout kind: TGI

The examples below pair each entry with its known result.
compound=COC(=O)c1ccc(N=NN(C)COc2ccc(Br)cc2)cc1 measured="> 100 µM"
compound=COC(=O)c1cccn1C(=O)n1cccc1 measured="> 100 µM"
compound=O=c1[nH]c(=S)[nH]c2c1CN(CCCN1CCOCC1)CN2 measured="54.4 µM"
compound=N=c1ccn(O)cc1/C=C1/C(=O)Nc2ccccc21 measured="> 100 µM"
compound=COC(=O)c1cc(O)c2cc3c(cc2c1-c1cc(OC)c(OC)c(OC)c1)OCO3 measured="> 100 µM"

QUERY: Could you share which TGI value was measured for COC(=O)C(C(=O)OC)C1CCCC(=O)C1 (stereo unspecified) ?
RESULT: > 100 µM
